Data origin: patent US20220403048A1

# test_target: T1, recombinant human trimeric ARG2 enzyme (construct not given) (human, UniProt P78540 23-354)
# T1 sequence (looked up): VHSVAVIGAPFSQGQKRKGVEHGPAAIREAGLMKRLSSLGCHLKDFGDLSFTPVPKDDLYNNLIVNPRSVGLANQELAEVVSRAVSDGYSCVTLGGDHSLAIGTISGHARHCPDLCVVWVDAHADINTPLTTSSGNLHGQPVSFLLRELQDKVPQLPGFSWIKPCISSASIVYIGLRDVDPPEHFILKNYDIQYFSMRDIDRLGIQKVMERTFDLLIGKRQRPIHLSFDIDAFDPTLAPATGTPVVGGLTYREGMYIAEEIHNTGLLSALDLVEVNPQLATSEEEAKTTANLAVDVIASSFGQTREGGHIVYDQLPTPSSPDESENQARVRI
# experiment_description: cell-based or functional assay
quantity_kind: Trimeric human ARG2 EIA IC50 (nM)
Number in nM, nothing else.

C0021089 scFv (scFv, V domains shown, scFv) VH: EVQLLESGGGLVQPGGSLRLSCAASGFTFPYEYWSWVRQAPGKGLEWVSAISGSGGSTYYADSVKGRFTISRDNSKNTLYLQMNSLRAQDTAVYYCARLRADLGLYMDLWGRGTLVTVSS VL: QSVLTQPPSVSAAPGQKVTISCSGSSSNIGNHYVSWYQQLPGTAPKLLIYDNSERPSGIPDRFSGSKSGTSATLGITGLQTGDEADYYCGTWDPTVSRLVFGGGTKLTVL | 71.5
C0021061 scFv (scFv, V domains shown, scFv) VH: EVQLLESGGGLVQPGGSLRLSCAASGFTFSSYAMSWVRQAPGKGLEWVSAKPTDAGSTYYADSVKGRFTISRDNSKNTLYLQMNSLRAEDTAVYYCARLRADLGLYMDLWGRGTLVTVSS VL: QSVLTQPPSVSAAPGQKVTISCSGSSSNIGNHYVSWYQQLPGTAPKLLIYNTVYPKSGIPDRFSGSKSGTSATLGITGLQTGDEADYYCGTWDSSLSALVFGGGTKLTVL | 110

I would be grateful if you could share the reported Trimeric human ARG2 EIA IC50 for C0021092 scFv (scFv, V domains shown, scFv) VH: EVQLLESGGGLVQPGGSLRLSCAASGFTFSRYAMSWVRQAPGKGLEWVSAHTHSPGSTYYADSVKGRFTISRDNSKNTLYLQMNSLRAEDTAVYYCARLRADLGLYMDLWGRGTLVTVSS VL: QSVLTQPPSVSAAPGQKVTISCSGSSSNIGNHYVSWYQQLPGTAPKLLIYNSVARPSGIPDRFSGSKSGTSATLGITGLQTGDEADYYCGTWDSSLSALVFGGGTKLTVL .
159

I would be grateful if you could share the reported Trimeric human ARG2 EIA IC50 for C0021098 scFv (scFv, V domains shown, scFv) VH: EVQLLESGGGLVQPGGSLRLSCAASGFTFSSYAMSWVRQAPGKGLEWVSSSTYGAGSTYYADSVKGRFTISRDNSKNTLYLQMNSLRAEDTAVYYCARLRADLGLYMDLWGRGTLVTVSS VL: QSVLTQPPSVSAAPGQKVTISCSGSSSNIGNHYVSWYQQLPGTAPKLLIYNSDAPMSGIPDRFSGSKSGTSATLGITGLQTGDEADYYCGTWDSSLSALVFGGGTKLTVL .
134

I would be grateful if you could share the reported Trimeric human ARG2 EIA IC50 for C0021101 scFv (scFv, V domains shown, scFv) VH: EVQLLESGGGLVQPGGSLRLSCAASGFTFSSYAMSWVRQAPGKGPEWVSAISGFSPYYADSVKGRFTISRDNSKNTLYLQMNSLRAEDTAVYYCARLRADLGLYMDLWGRGTLVTVSS VL: QSVLTQPPSVSAAPGQKVTISCSGSSSNIGNHYVSWYQQLPGTAPKLLIYNNRSPTSGIPDRFSGSKSGTSATLGITGLQTGDEADYYCGTWDSSLSALVFGGGTKLTVL .
64.8
